assayed system: human TLR7 (Homo sapiens (Human), UniProt Q9NYK1)
Sequence (Q9NYK1 27-1049): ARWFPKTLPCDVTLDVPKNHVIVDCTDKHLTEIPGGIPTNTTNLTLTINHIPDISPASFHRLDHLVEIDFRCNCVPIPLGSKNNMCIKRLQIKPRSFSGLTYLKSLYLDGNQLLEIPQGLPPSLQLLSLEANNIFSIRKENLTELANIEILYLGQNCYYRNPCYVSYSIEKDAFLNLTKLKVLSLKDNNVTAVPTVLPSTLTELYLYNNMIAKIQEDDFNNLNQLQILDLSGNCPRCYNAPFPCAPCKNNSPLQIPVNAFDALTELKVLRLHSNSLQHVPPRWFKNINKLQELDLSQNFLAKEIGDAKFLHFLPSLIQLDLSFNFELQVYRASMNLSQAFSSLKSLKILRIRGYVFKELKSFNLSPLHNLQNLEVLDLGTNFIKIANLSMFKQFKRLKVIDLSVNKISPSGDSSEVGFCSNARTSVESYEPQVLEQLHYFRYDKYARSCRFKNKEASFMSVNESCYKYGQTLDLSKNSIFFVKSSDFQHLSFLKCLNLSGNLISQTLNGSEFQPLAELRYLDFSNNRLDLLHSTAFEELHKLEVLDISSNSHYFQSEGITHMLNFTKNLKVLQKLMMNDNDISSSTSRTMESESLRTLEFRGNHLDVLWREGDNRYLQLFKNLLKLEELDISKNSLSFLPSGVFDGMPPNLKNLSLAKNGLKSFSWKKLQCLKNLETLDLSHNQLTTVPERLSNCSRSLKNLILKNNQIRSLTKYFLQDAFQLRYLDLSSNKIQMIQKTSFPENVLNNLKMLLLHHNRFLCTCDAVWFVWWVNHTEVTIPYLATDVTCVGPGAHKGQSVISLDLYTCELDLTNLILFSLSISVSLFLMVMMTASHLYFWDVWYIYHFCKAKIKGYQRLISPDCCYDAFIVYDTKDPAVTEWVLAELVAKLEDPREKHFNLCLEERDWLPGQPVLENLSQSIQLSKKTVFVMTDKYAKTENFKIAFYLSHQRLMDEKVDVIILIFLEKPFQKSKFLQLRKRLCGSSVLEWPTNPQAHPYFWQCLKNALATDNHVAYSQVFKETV
assay method text: TLR7 inhibition reporter assay (HEK-Blue cells, SEAP reporter, gardiquimod stimulation)
Assay type: cell-based
assay setup: HEK-Blue cells overexpressing human TLR7, gardiquimod 7.5 μM
parameter measured: IC50 (nM)

Cc1cc(-c2[nH]c3ccc(C4CCN(CCCN(C)C)CC4)cc3c2C(C)C)cc(C)n1	0.8
Cc1cc(-c2[nH]c3ccc(C4CCN(C(=O)CNCCO)CC4)cc3c2C(C)C)cc(C)n1	1.5
Cc1cc(-c2[nH]c3ccc(C4CCN(Cc5ncon5)CC4)cc3c2C(C)C)c(C)cn1	13.8

A = Cc1cc(-c2[nH]c3ccc(C4CCN(C(=O)CN(C)C)CC4)cc3c2CC(F)F)cc(C)n1
B = CC(=O)Nc1ccc(S(=O)(=O)N2CCC(c3ccc4[nH]c(-c5ccnc(C)c5)c(C(C)C)c4c3)CC2)cc1
stdin: Field: entry with larger IC50 (options A / B ). Kindly state the label of the option you pick.
stdout: B
(B: 130 nM, A: 77.8 nM)

* * *

assayed system: human TLR9 (Homo sapiens (Human))
assay method text: TLR9 inhibition reporter assay (HEK-Blue cells, SEAP reporter, ODN2006 stimulation)
assay setup: read-out: TLR9 IC50, HEK-Blue cells overexpressing human TLR9, ODN2006 5 nM
parameter measured: IC50 (nM)

Cc1cc(-c2[nH]c3ccc(C4CCN(C(=O)CNCC5CC5)CC4)cc3c2C(C)C)cc(C)n1	869
CCc1c(-c2ccncc2)[nH]c2ccc(C3CCN(C4CCN(CC(C)C)CC4)CC3)cc12	159
CCc1c(-c2ccnc(NC(C)=O)c2)[nH]c2ccc(C3CCNCC3)cc12	1030

P = CCc1c(-c2ccnc(NC(C)=O)c2)[nH]c2ccc(C3CCN(C4CCN(CC(C)C)CC4)CC3)cc12
Q = CCc1c(-c2cc(C)nc(C)c2)[nH]c2ccc(C3CCN(C(=O)C4CC(=O)N(C)C4)CC3)cc12 (centres unmarked)
stdin: Field: entry with larger IC50 (options P / Q ). Kindly state the label of the option you pick.
stdout: Q

P = Cc1cc(-c2[nH]c3ccc(C4CCN(CC(=O)NC5CCOC5)CC4)cc3c2C(C)C)cc(C)n1 (centres unmarked)
Q = Cc1cc(-c2[nH]c3ccc(C4CCN(CC(=O)N(C)CC(C)(C)O)CC4)cc3c2C(C)C)cc(C)n1
R = Cc1cc(-c2[nH]c3ccc(C4CCN(C5CCNCC5F)CC4)cc3c2C(C)C)ccn1 (centres unmarked)
stdin: Hello, I need these entries ordered by IC50, highest reading first. Thanks! To answer, write out the labels according to the requested order.
stdout: P, R, Q

* * *

assayed system: human TLR9 (Homo sapiens (Human), UniProt Q9NR96)
Sequence (Q9NR96 26-1032): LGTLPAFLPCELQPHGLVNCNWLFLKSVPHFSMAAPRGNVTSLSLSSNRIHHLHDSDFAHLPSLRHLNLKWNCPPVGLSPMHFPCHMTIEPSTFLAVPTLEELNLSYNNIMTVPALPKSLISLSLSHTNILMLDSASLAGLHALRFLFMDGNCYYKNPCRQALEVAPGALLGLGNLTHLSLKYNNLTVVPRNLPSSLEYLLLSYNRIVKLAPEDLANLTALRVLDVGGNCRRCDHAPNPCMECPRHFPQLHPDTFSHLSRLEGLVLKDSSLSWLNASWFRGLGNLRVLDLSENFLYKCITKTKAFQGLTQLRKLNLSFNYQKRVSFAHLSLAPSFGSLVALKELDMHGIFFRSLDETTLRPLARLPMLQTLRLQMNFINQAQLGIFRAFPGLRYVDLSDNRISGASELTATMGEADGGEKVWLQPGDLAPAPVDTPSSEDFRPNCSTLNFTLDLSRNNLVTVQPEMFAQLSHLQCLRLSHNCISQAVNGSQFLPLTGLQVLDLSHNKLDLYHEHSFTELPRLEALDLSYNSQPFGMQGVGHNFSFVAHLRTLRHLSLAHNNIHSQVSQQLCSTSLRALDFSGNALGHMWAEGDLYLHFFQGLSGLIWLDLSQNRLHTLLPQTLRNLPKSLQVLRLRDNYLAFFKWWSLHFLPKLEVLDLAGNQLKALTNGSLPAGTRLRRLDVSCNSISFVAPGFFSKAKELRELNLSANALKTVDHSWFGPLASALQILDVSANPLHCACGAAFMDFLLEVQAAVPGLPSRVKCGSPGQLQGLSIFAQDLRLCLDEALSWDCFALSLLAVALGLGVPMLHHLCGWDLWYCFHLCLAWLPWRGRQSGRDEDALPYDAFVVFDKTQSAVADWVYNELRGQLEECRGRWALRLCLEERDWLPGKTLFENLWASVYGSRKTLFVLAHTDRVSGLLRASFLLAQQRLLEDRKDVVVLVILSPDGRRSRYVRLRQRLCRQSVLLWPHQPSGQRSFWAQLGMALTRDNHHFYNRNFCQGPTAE
assay method text: TLR9 inhibition reporter assay (HEK-Blue cells, SEAP reporter, ODN2006 stimulation);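 further: compounds tested over 0.05 nM to 50 µM, 22 h incubation, inhibition taken as SEAP signal drop from agonist plus DMSO wells toward a known inhibitor control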
assay setup: read-out: TLR9 IC50, HEK-Blue cells overexpressing human TLR9, ODN2006 5 nM
pIC50: −log10 of the molar value.
parameter measured: pIC50

Cc1cc(-c2[nH]c3ccc(C4CCN(C[C@@H]5CCNC5)CC4)cc3c2C(C)C)ccn1	6.55
Cc1cc(-c2[nH]c3ccc(C4CCN(C5CCN(C(C)C)CC5)CC4)cc3c2CC(F)F)cc(C)n1	6.88
Cc1cc(-c2[nH]c3ccc(C4CCN(C(=O)CN5CC[C@@H](O)C5)CC4)cc3c2C(C)C)cc(C)n1	6.16
CCC(=O)N1CCC(c2ccc3[nH]c(-c4ccnc(C)c4)c(C(C)C)c3c2)CC1	4.43
CCc1c(-c2ccnc(C)c2)[nH]c2c(F)cc(C3CCNCC3)cc12	6.16
Cc1cc(-c2[nH]c3ccc(C4CCN(C(=O)CN5CCCCC5C)CC4)cc3c2C(C)C)cc(C)n1 (stereo not shown)	6.29
CCc1c(-c2ccnc(OC)c2)[nH]c2ccc(C3CCN(C4CCN(C)CC4)CC3)cc12	5.75
Cc1cc(-c2[nH]c3ccc(C4CCN(C(=O)CCn5nc(C)cc5C)CC4)cc3c2C(C)C)cc(C)n1	4.34
Cc1cc(-c2[nH]c3ccc(C4CCN(C(=O)CN5CCOC[C@H]5CO)CC4)cc3c2C(C)C)cc(C)n1	6.35

P = Cc1cc(-c2[nH]c3ccc(C4CCNCC4)cc3c2C(C)(C)C)ccn1
Q = Cc1cc(-c2[nH]c3ccc(C4CCN(C(=O)C5CCNCC5)CC4)cc3c2C(C)C)ccn1
R = Cc1cc(-c2[nH]c3ccc(C4CCN(CC(=O)N5CCCC(O)C5)CC4)cc3c2C(C)C)cc(C)n1 (stereo not shown)
S = CC(C)c1c(-c2ccnc(C(F)(F)F)c2)[nH]c2ccc(C3CCNCC3)cc12
stdin: Hello, I need these entries ordered by pIC50, highest reading first. Thanks! To answer, write out the labels according to the requested order.
stdout: R, Q, S, P
